Taken from ChEMBL document CHEMBL4251601.

assay: Volume of distribution at steady state in Sprague-Dawley rat at 2 mg/kg, iv administered as single dose by LC-MS/MS analysis; assay type: ADME, organism-based; conditions: in vivo, read-out: Vdss
Kindly state Vd for each of the entries shown.
One number for each entry, in L/kg.

Some compounds with recorded Vd:
COMPOUND: CCC1(CC)C(C)=Nc2c(F)cc(-c3nc(Nc4ccc(N5CCNCC5)cn4)ncc3F)cc21
Vd [L/kg]: 28.1
//
COMPOUND: CC1=Nc2ccc(-c3nc(Nc4ccc(N5CCNCC5)cn4)ncc3F)cc2C12CCCC2
Vd [L/kg]: 11
//
COMPOUND: CC1=Nc2c(F)cc(-c3nc(Nc4ccc(N5CCNCC5)cn4)ncc3F)cc2C12CCCC2
Vd [L/kg]: 17.2
//
COMPOUND: CC1=Nc2c(F)cc(-c3nc(Nc4ccc(C5CCNCC5)cn4)ncc3F)cc2C12CCCC2
Vd [L/kg]: 15.6
//
COMPOUND: CCC1(C)C(C)=Nc2c(F)cc(-c3nc(Nc4ccc(N5CCN(C)CC5)cn4)ncc3F)cc21 (stereo unspecified)
Vd [L/kg]: 6.4
//
COMPOUND: CCN1CCN(c2ccc(Nc3ncc(F)c(-c4cc(F)c5c(c4)C4(CCCC4)C(C)=N5)n3)nc2)CC1
Vd [L/kg]: 5.7

Give measured Vd for every item shown.
1. CCC1(CC)C(C)=Nc2c(F)cc(-c3nc(Nc4ccc(N5CCN(C)CC5)cn4)ncc3F)cc21
2. CC1=Nc2c(F)cc(-c3nc(Nc4ccc(N5CCN(C)CC5)cn4)ncc3F)cc2C12CCCC2
3. CCC1(C)C(C)=Nc2c(F)cc(-c3nc(Nc4ccc(C5CCN(C)CC5)cn4)ncc3F)cc21 (stereo unspecified)
4. CCC1(C)C(C)=Nc2c(F)cc(-c3nc(Nc4ccc(N5CCNCC5)cn4)ncc3F)cc21 (stereo unspecified)
5. CCN1CCN(Cc2ccc(Nc3ncc(F)c(-c4cc(F)c5c(c4)C4(CCCC4)C(C)=N5)n3)nc2)CC1
6. CC1=Nc2ccc(-c3nc(Nc4ccc(N5CCN(C)CC5)cn4)ncc3F)cc2C12CCCC2

1: 17.9; 2: 8.5; 3: 40.1; 4: 28.1; 5: 16.7; 6: 15.7

Give measured Vd for every item shown.
1. CCN1CCN(c2ccc(Nc3ncc(F)c(-c4ccc5c(c4)C4(CCCC4)C(C)=N5)n3)nc2)CC1
2. CCN1CCC(c2ccc(Nc3ncc(F)c(-c4cc(F)c5c(c4)C4(CCCC4)C(C)=N5)n3)nc2)CC1
3. CC1=Nc2c(F)cc(-c3nc(Nc4ccc(C5CCN(C)CC5)cn4)ncc3F)cc2C12CCCC2 [CROZBACICLIB]
4. CCN1CCN(Cc2ccc(Nc3ncc(F)c(-c4cc(F)c5c(c4)C(C)(CC)C(C)=N5)n3)nc2)CC1 (stereo unspecified)

1. 7.1
2. 11.6
3. 17.4
4. 25.1

---

Kindly state half-life for each of the entries shown.
assay: Half life in Sprague-Dawley rat at 2 mg/kg, iv administered as single dose by LC-MS/MS analysis; type: ADME, organism-based; details: in vivo
One number for each entry, in h.

Some molecules with recorded half-life:
MOLECULE: CC1=Nc2c(F)cc(-c3nc(Nc4ccc(N5CCN(C)CC5)cn4)ncc3F)cc2C12CCCC2
half-life [h]: 3.8

MOLECULE: CCN1CCN(c2ccc(Nc3ncc(F)c(-c4ccc5c(c4)C4(CCCC4)C(C)=N5)n3)nc2)CC1
half-life [h]: 6.1

MOLECULE: CC1=Nc2c(F)cc(-c3nc(Nc4ccc(C5CCN(C)CC5)cn4)ncc3F)cc2C12CCCC2
half-life [h]: 7.1

MOLECULE: CC1=Nc2c(F)cc(-c3nc(Nc4ccc(N5CCNCC5)cn4)ncc3F)cc2C12CCCC2
half-life [h]: 5.8

MOLECULE: CCN1CCN(Cc2ccc(Nc3ncc(F)c(-c4cc(F)c5c(c4)C4(CCCC4)C(C)=N5)n3)nc2)CC1
half-life [h]: 4.6

MOLECULE: CCC1(CC)C(C)=Nc2c(F)cc(-c3nc(Nc4ccc(N5CCNCC5)cn4)ncc3F)cc21
half-life [h]: 3

MOLECULE: CCN1CCC(c2ccc(Nc3ncc(F)c(-c4cc(F)c5c(c4)C4(CCCC4)C(C)=N5)n3)nc2)CC1
half-life [h]: 13.2

MOLECULE: CCC1(C)C(C)=Nc2c(F)cc(-c3nc(Nc4ccc(C5CCN(C)CC5)cn4)ncc3F)cc21 (stereo unspecified)
half-life [h]: 7

Give measured half-life for every item shown.
1. CCC1(C)C(C)=Nc2c(F)cc(-c3nc(Nc4ccc(N5CCNCC5)cn4)ncc3F)cc21 (stereo unspecified)
2. CC1=Nc2c(F)cc(-c3nc(Nc4ccc(C5CCNCC5)cn4)ncc3F)cc2C12CCCC2
3. CCN1CCN(c2ccc(Nc3ncc(F)c(-c4cc(F)c5c(c4)C4(CCCC4)C(C)=N5)n3)nc2)CC1
4. CCC1(CC)C(C)=Nc2c(F)cc(-c3nc(Nc4ccc(N5CCN(C)CC5)cn4)ncc3F)cc21
5. CCN1CCN(Cc2ccc(Nc3ncc(F)c(-c4cc(F)c5c(c4)C(C)(CC)C(C)=N5)n3)nc2)CC1 (stereo unspecified)
6. CC1=Nc2ccc(-c3nc(Nc4ccc(N5CCN(C)CC5)cn4)ncc3F)cc2C12CCCC2
7. CCC1(C)C(C)=Nc2c(F)cc(-c3nc(Nc4ccc(N5CCN(C)CC5)cn4)ncc3F)cc21 (stereo unspecified)

3
8.6
7
1.4
5.3
4.8
2.1

Tell me its half-life given CC1=Nc2ccc(-c3nc(Nc4ccc(N5CCNCC5)cn4)ncc3F)cc2C12CCCC2 as the entry.
4.8
